These measurements were taken from ChEMBL document CHEMBL4130363.

Biological target: 5-hydroxytryptamine receptor 1B (Homo sapiens)
Test: Antagonist activity at recombinant human 5-HT1B assessed as inhibition of agonist-induced effect at 10 uM by GTPgamma[35S] binding-based assay
Type: functional
Parameter: inhibition (%)
Answer with a number only, understood to be in %.

Could you tell me which inhibition is on file for CN(CCNC(=O)c1ccc([N+](=O)[O-])cc1)Cc1ccccc1 ?
7

// repeat for CN(CCCNC(=O)c1cccc(Br)c1)Cc1ccccc1 and report
35

// repeat for COc1ccc(C(=O)NCCCN(C)Cc2ccccc2)cc1 and report
18

// repeat for CN(CCCNC(=O)c1ccc([N+](=O)[O-])cc1)Cc1ccccc1 and report
4

// repeat for CN(CCCNC(=O)c1ccc(C(F)(F)F)cc1)Cc1ccccc1 and report
11

New cases:
Could you tell me which inhibition is on file for CN(CCNC(=O)c1ccc(C#N)cc1)Cc1ccccc1 ?
17

// repeat for COc1cccc(C(=O)NCCCN(C)Cc2ccccc2)c1 and report
13

// repeat for CCCc1ccc(C(=O)NCCCN(C)Cc2ccccc2)cc1 and report
-8

// repeat for CN(CCNC(=O)c1ccc(Cl)cc1)Cc1ccccc1 and report
1

// repeat for CN(CCCNC(=O)c1ccc(Cl)cc1)Cc1ccccc1 and report
11

// repeat for CN(CCCNC(=O)c1ccc(Cl)cc1)CCc1ccccc1 and report
65

// repeat for CN(CCCNC(=O)c1ccc(Br)cc1)Cc1ccccc1 and report
0

* * *

Target: Alpha-2B adrenergic receptor (Homo sapiens) (UniProt P18089)
Sequence (P18089 whole entry): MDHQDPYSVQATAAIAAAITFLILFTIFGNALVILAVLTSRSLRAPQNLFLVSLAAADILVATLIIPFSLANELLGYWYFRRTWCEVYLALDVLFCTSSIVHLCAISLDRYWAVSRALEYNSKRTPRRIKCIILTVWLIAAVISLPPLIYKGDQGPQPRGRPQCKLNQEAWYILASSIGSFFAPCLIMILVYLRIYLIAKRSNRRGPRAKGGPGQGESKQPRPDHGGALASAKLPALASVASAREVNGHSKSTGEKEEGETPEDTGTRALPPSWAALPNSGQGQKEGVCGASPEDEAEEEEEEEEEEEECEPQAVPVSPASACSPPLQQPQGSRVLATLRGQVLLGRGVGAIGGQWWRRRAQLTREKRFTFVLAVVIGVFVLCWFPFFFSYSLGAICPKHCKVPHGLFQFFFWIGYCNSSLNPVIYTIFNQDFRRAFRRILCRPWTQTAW
Test: Agonist activity at recombinant human alpha-2b adrenergic receptor at 10 uM by GTPgamma[35S] binding-based assay relative to agonist
Assay type: functional
The entries below are paired with their reported Activity.
Answer with a number only, understood to be in %.

Answered cases to consult:
# query: Activity | item CN(CCCNC(=O)c1ccc(C(F)(F)F)cc1)Cc1ccccc1 | system: Alpha-2B adrenergic receptor (Homo sapiens) (UniProt P18089)
2

// repeat for CN(CCCNC(=O)c1ccc(Br)cc1)Cc1ccccc1 and report
1

// repeat for CN(CCNC(=O)c1ccc([N+](=O)[O-])cc1)Cc1ccccc1 and report
-4

// repeat for CN(CCNC(=O)c1ccc(C#N)cc1)Cc1ccccc1 and report
-5

// repeat for COc1ccc(C(=O)NCCCN(C)Cc2ccccc2)cc1 and report
-4

New cases:
# query: Activity | item CN(CCCNC(=O)c1ccc(Cl)cc1)CCc1ccccc1 | system: Alpha-2B adrenergic receptor (Homo sapiens) (UniProt P18089)
0

// repeat for CCCc1ccc(C(=O)NCCCN(C)Cc2ccccc2)cc1 and report
-2

// repeat for COc1cccc(C(=O)NCCCN(C)Cc2ccccc2)c1 and report
-1

// repeat for CN(CCCNC(=O)c1cccc(Br)c1)Cc1ccccc1 and report
-4

// repeat for CN(CCCNC(=O)c1ccc(Cl)cc1)Cc1ccccc1 and report
1

// repeat for CN(CCCNC(=O)c1ccc([N+](=O)[O-])cc1)Cc1ccccc1 and report
2

// repeat for CN(CCNC(=O)c1ccc(Cl)cc1)Cc1ccccc1 and report
-1

* * *

Molecular target: Histamine H2 receptor (Homo sapiens) (UniProt P25021)
Sequence (P25021 whole entry): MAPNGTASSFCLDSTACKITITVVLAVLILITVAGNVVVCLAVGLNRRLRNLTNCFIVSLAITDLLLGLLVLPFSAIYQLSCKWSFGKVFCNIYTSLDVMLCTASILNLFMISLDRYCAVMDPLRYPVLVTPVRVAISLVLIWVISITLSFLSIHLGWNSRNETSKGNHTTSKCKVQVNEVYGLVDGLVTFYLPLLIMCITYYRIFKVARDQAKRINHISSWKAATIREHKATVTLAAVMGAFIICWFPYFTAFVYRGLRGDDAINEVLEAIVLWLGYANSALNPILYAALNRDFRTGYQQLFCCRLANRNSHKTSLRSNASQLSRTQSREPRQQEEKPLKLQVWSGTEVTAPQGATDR
Test: Agonist activity at recombinant human histamine H2 receptor assessed as induction of cAMP levels at 10 uM by HTRF assay relative to agonist
Format: functional
The entries below are paired with their reported Activity.
Answer with a number only, understood to be in %.

Answered cases to consult:
Could you tell me which Activity is on file for CN(CCCNC(=O)c1ccc(Cl)cc1)CCc1ccccc1 ?
15

// repeat for CN(CCNC(=O)c1ccc(C#N)cc1)Cc1ccccc1 and report
-3

// repeat for CCCc1ccc(C(=O)NCCCN(C)Cc2ccccc2)cc1 and report
1

// repeat for COc1ccc(C(=O)NCCCN(C)Cc2ccccc2)cc1 and report
9

New cases:
Could you tell me which Activity is on file for COc1cccc(C(=O)NCCCN(C)Cc2ccccc2)c1 ?
10

// repeat for CN(CCCNC(=O)c1cccc(Br)c1)Cc1ccccc1 and report
-3

// repeat for CN(CCCNC(=O)c1ccc(Br)cc1)Cc1ccccc1 and report
-8

// repeat for CN(CCNC(=O)c1ccc(Cl)cc1)Cc1ccccc1 and report
-7

// repeat for CN(CCCNC(=O)c1ccc(C(F)(F)F)cc1)Cc1ccccc1 and report
-7

// repeat for CN(CCNC(=O)c1ccc([N+](=O)[O-])cc1)Cc1ccccc1 and report
9

// repeat for CN(CCCNC(=O)c1ccc(Cl)cc1)Cc1ccccc1 and report
-10

// repeat for CN(CCCNC(=O)c1ccc([N+](=O)[O-])cc1)Cc1ccccc1 and report
-7
